# measured-target: C-Rel subunit;p52 subunit (Homo sapiens;Homo sapiens, UniProt Q04864;Q00653 1-285;4-332)
# Sequence 1: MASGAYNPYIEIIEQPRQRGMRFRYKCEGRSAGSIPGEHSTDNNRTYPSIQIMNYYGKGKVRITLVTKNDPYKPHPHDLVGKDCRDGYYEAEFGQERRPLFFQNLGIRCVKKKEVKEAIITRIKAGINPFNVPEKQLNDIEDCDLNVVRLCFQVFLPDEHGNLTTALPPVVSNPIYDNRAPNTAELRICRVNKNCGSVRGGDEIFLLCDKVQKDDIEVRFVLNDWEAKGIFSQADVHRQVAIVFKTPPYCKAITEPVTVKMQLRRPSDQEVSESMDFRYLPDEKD
# Sequence 2: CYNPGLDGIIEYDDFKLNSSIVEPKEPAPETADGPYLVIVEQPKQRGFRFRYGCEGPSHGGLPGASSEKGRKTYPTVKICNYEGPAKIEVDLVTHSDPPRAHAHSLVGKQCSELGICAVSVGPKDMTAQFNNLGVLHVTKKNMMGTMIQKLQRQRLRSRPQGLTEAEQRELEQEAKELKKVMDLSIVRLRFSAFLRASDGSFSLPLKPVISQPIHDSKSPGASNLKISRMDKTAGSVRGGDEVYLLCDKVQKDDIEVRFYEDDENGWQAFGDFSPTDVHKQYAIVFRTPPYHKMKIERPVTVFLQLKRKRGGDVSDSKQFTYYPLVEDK
# run-description: protein binding microarray; high values mean tight binding
# condition-description: dsDNA, one strand shown
metric: binding signal (z-score)
One number for each entry, in z-score.

Known binding signal results, listed for orientation:
{"columns": ["residue-string", "binding signal (z-score)"],
 "data": [
  ["AAAGGCACCCT", -0.741],
  ["AAAGATGTCCC", -0.0919],
  ["CAAAGAACCCT", -0.544],
  ["AAGGTCACCCT", -0.77],
  ["CGAAACCCCCT", 2.21],
  ["GAGGGAGCCCT", -0.682]
]}

Respectfully, I request binding signal for each entry included below.
1. CGATGTACCCC
2. GAAAGGTTCCC
3. GAGAGTTCCCC
4. CGAATCATCCC
5. GAGAGCCCCCC
6. AGGAGGATCCT

1. 0.101
2. -0.167
3. 1.67
4. -0.523
5. 0.389
6. -0.915

Respectfully, I request binding signal for each entry included below.
1. AGAATTTCCCC
2. GAGTGGATCCT
3. GGAGTGACCCC
4. CAAGGCCCCCT
5. GGATGCATCCC

1: 2.29; 2: -0.92; 3: -0.254; 4: -0.139; 5: -0.672

Respectfully, I request binding signal for each entry included below.
1. AGGTAGGTCCC
2. AAGGACTCCCC
3. GGGGGTGCCCC
4. AGGAAGCCCCC
5. AAGGGCACCCC

1. 0.122
2. 0.388
3. 2.5
4. 1.7
5. -0.364

Respectfully, I request binding signal for each entry included below.
1. AGAGTGTCCCT
2. AAAGGATCCCT
3. AGAATGTTCCT
4. AGAGGGACCCT
5. GGAATTACCCC
6. AGAGGTCTCCC

[0.669, -0.634, -0.63, -0.355, 2.35, -0.363]

====

Assignment: determine reported binding signal for the given sequences.
# measured-target: RELA (p65) subunit of heterodimer;p50 subunit (Homo sapiens;Homo sapiens, UniProt Q04206;P19838 1-307;7-356)
# Sequence (Q04206 1-307, chain 1 of 2): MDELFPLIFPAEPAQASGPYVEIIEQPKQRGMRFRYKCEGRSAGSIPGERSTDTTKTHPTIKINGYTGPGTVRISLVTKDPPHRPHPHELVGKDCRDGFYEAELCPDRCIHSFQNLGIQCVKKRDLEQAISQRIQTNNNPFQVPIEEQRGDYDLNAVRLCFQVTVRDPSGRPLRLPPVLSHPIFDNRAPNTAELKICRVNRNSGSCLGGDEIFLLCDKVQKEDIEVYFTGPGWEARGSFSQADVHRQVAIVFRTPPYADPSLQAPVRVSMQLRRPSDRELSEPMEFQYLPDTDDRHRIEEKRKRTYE
# Sequence (P19838 7-356, chain 2 of 2): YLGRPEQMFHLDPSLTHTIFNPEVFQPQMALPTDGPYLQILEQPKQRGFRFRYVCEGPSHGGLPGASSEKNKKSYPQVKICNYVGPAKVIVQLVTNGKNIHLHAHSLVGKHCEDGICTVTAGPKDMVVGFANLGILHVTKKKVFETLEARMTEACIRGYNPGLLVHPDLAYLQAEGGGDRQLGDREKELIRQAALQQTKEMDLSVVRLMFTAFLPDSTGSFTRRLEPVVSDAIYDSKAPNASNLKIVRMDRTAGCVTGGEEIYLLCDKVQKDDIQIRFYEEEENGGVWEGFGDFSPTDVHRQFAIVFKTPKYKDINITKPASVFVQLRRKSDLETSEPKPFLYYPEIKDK
# run-description: protein binding microarray; high values mean tight binding
# condition-description: dsDNA, one strand shown
Give bare numbers, in z-score.

Respectfully, I request binding signal for each entry included below.
1. GAATACTCCCC
2. CAGGTACCCCT

1. 0.707
2. 0.304

====

# measured-target: RELB subunit;p52 subunit (Homo sapiens;Homo sapiens, UniProt Q01201;Q00653 120-401;4-332)
# Sequence 1: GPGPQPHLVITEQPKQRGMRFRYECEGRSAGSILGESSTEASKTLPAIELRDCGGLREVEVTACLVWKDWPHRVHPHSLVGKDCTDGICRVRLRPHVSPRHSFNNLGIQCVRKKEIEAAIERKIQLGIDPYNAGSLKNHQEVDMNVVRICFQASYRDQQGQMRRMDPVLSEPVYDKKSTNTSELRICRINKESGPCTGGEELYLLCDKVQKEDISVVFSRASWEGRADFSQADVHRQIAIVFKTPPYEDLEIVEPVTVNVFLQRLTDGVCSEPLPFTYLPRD
# Sequence 2: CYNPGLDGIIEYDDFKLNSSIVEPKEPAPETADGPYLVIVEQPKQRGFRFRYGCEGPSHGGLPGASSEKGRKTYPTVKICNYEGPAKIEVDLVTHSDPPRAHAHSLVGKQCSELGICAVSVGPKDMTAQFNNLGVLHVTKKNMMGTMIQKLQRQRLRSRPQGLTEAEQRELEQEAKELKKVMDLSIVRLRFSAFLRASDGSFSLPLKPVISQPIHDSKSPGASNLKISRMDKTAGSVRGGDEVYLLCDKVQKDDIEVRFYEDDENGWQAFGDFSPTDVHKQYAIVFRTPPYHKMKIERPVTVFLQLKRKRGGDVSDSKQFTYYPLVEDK
# run-description: protein binding microarray; high values mean tight binding
# condition-description: dsDNA, one strand shown
Where binding signal equals or exceeds -0.2 z-score, the correct label is MET; where it does not, the label is NOT MET.

Please check the record `GAAAAATTCCT` and state if its binding signal is at or above -0.2 z-score. NOT MET

Please check the record `AGGATAGCCCT` and state if its binding signal is at or above -0.2 z-score. NOT MET

Please check the record `GAATTAGTCCT` and state if its binding signal is at or above -0.2 z-score. NOT MET

Please check the record `CAGGAGGTCCT` and state if its binding signal is at or above -0.2 z-score. NOT MET

Please check the record `CAATAGCCCCT` and state if its binding signal is at or above -0.2 z-score. MET

Please check the record `AGAGGCGTCCC` and state if its binding signal is at or above -0.2 z-score. MET

====

# measured-target: p52p52 homodimer (Homo sapiens, UniProt Q00653 4-332)
# Sequence: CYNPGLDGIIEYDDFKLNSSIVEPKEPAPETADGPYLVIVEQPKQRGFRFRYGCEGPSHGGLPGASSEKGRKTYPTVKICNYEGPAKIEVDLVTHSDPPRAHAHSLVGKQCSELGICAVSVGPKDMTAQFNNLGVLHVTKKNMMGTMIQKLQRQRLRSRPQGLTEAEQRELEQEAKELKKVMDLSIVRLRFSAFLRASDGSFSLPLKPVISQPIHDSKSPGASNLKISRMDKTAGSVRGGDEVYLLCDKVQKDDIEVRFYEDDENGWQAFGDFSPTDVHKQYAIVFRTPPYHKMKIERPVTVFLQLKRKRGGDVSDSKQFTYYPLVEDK
# run-description: protein binding microarray; high values mean tight binding
# condition-description: dsDNA, one strand shown
Where binding signal equals or exceeds 0.02 z-score, the correct label is True; where it does not, the label is False.

Worked set:
{"columns": ["residue-string", "measured-target", "label"],
 "data": [
  ["AAAATCGCCCT", "p52p52 homodimer (Homo sapiens, UniProt Q00653 4-332)", "False"],
  ["AAAGACTCCCT", "p52p52 homodimer (Homo sapiens, UniProt Q00653 4-332)", "False"],
  ["AGGGGAGTCCT", "p52p52 homodimer (Homo sapiens, UniProt Q00653 4-332)", "True"]
]}

Please check the record `CGGGGGGTCCC` and state if its binding signal is at or above 0.02 z-score. True

Please check the record `GGAAGCACCCT` and state if its binding signal is at or above 0.02 z-score. True

Please check the record `AAAGTTGCCCC` and state if its binding signal is at or above 0.02 z-score. True

Please check the record `AGAAACGTCCT` and state if its binding signal is at or above 0.02 z-score. False

Please check the record `AGAGTAGCCCT` and state if its binding signal is at or above 0.02 z-score. False

Please check the record `CGAAGTTCCCT` and state if its binding signal is at or above 0.02 z-score. True

Please check the record `GAGTTATCCCT` and state if its binding signal is at or above 0.02 z-score. True

Please check the record `GGATAGGTCCC` and state if its binding signal is at or above 0.02 z-score. True

====

# measured-target: RELA (p65) subunit of heterodimer;p50 subunit (Homo sapiens;Homo sapiens, UniProt Q04206;P19838 1-307;7-356)
# run-description: protein binding microarray; high values mean tight binding
# condition-description: dsDNA, one strand shown
metric: binding signal (z-score)
One number for each entry, in z-score.

{"columns": ["residue-string", "binding signal [z-score]"],
 "data": [
  ["CAAGGTATCCC", -0.874],
  ["AAAAACCTCCC", 0.166],
  ["CGAGGCTTCCT", -1.09],
  ["CAGTTTATCCC", -0.133],
  ["GGATTTTCCCC", 2.27]
]}

Respectfully, I request binding signal for each entry included below.
1. CAGAGCTCCCC
2. CGAGTAACCCC
3. GGGGGTGCCCC
4. AGAAGCATCCC
5. AGGTAAACCCC
6. AAGGTTATCCC
7. GGGTTCCTCCT
8. CGAGTGCTCCT

1. 0.0392
2. -0.232
3. 2.21
4. -0.83
5. 1.25
6. -0.139
7. -0.636
8. -1.11

Respectfully, I request binding signal for each entry included below.
1. AAATGACCCCT
2. GAATTGTCCCC
3. GAATATCCCCC
4. GAGTTCTTCCT
5. CGAGAATCCCT
6. GAATGATCCCC
7. CAGTAGACCCC

1: 0.135; 2: 1.38; 3: 1.94; 4: -0.535; 5: 0.25; 6: 0.936; 7: -0.397

Respectfully, I request binding signal for each entry included below.
1. GAATGTTTCCC
2. CGAATTCTCCT
3. CGGGGCATCCT
4. AAGATTTCCCC

[1.09, -0.48, 0.0241, 2.11]

Ref: paper PMC3218832
